Biological target: T1, A1 protein (mouse, residues 1-152, P104K C113S, used as wild type) (mouse)
T1 sequence (Q07440 1-152 with P104K C113S, looked up): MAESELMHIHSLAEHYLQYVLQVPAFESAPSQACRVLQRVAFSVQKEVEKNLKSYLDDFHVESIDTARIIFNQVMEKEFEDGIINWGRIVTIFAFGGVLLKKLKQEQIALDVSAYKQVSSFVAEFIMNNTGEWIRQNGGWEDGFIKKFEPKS
Test: fluorescence dissociation kinetics with competitor; dissociation; preformed complex of TAMRA-labelled peptide and partner protein mixed with excess unlabeled PUMA peptide as competitor; stopped-flow or Cary Eclipse spectrophotometer; 25 °C; 50 mM sodium phosphate, 0.05% (v/v) Tween 20, pH …
Where no end group is shown, it is not given here. The star is where a group is joined. TAMRA = 5-carboxytetramethylrhodamine, CN(C)c1ccc2c(-c3ccc(C(=O)*)cc3C(=O)[O-])c3ccc(=[N+](C)C)cc-3oc2c1
parameter: koff (s⁻¹)
Just the number please, in s⁻¹, no unit attached.

1. {TAMRA}-SESQEEIIHNIAGHLAQIGDEMDHNIQPTLVRQLA (peptide, UniProt P70444 76-110, looked up, BID, mouse, residues 76-110, UniProt P70444; source: synthetic peptide (Biomatik)) [BID R88G peptide, TAMRA-labelled] : 0.00303
2. {TAMRA}-RVEEEEWAREIGAQLRRAADALNAQYERRRQEEQH [PUMA D147A peptide (on the M144A wild type), TAMRA-labelled] : 0.00048

Moving on to another binder below.
Suppose we examine the binder {TAMRA}-RVEEEEWAREIGAQLRGAADDLNAQYERRRQEEQH [PUMA R143G peptide (on the M144A wild type), TAMRA-labelled] ; what koff value has been reported?
0.0052
